assay-remarks: activity coefficient (dimensionless); of the first substance listed, at infinite dilution; xn = mol fraction of the nth substance listed
experimental-conditions: 338.15 K; 101.33 kPa; Liquid; Chromatography; x1 = 0
assay-endpoint: activity coefficient

For record C=CCCCCCCCC [1-decene] + CCCCCCCCCCCC[N+](C)(C)CCOc1ccccc1.O=S(=O)([N-]S(=O)(=O)C(F)(F)F)C(F)(F)F the listed activity coefficient is 4.27

For record CCc1ccccc1 [ethylbenzene] + CCCCCCCCCCCC[N+](C)(C)CCOc1ccccc1.O=S(=O)([N-]S(=O)(=O)C(F)(F)F)C(F)(F)F the listed activity coefficient is 0.995

For record C=CCCCC [hex-1-ene] + CCCCCCCCCCCC[N+](C)(C)CCOc1ccccc1.O=S(=O)([N-]S(=O)(=O)C(F)(F)F)C(F)(F)F the listed activity coefficient is 2.28

* * *

assay-remarks: activity coefficient (dimensionless); of the first substance listed, at infinite dilution; xn = mol fraction of the nth substance listed
experimental-conditions: 338.15 K; 101.33 kPa; Liquid; Chromatography; x1 = 0
assay-endpoint: activity coefficient
Just the number, please.

For record COC(C)(C)C [2-methoxy-2-methylpropane] + CCCCCCCCCCCC[N+](C)(C)CCOc1ccccc1.N#C[N-]C#N the listed activity coefficient is 2.33

For record CCCOCCC [dipropyl ether] + CCCCCCCCCCCC[N+](C)(C)CCOc1ccccc1.O=S(=O)([N-]S(=O)(=O)C(F)(F)F)C(F)(F)F the listed activity coefficient is 1.92

For record CC(C)CO [2-methyl-1-propanol] + CCCCCCCCCCCC[N+](C)(C)CCOc1ccccc1.N#C[N-]C#N the listed activity coefficient is 0.46

For record C1CCCCCC1 [cycloheptane] + CCCCCCCCCCCC[N+](C)(C)CCOc1ccccc1.N#C[N-]C#N the listed activity coefficient is 3.29

* * *

assay-remarks: activity coefficient (dimensionless); of the first substance listed, at infinite dilution; xn = mol fraction of the nth substance listed
experimental-conditions: 358.15 K; 101.33 kPa; Liquid; Chromatography; x1 = 0
assay-endpoint: activity coefficient
Just the number, please.

For record CC(C)O [propan-2-ol] + CCCCCCCCCCCC[N+](C)(C)CCOc1ccccc1.O=S(=O)([N-]S(=O)(=O)C(F)(F)F)C(F)(F)F the listed activity coefficient is 1.11

For record COC(C)(C)C [2-methoxy-2-methylpropane] + CCCCCCCCCCCC[N+](C)(C)CCOc1ccccc1.N#C[N-]C#N the listed activity coefficient is 2.43

For record CCC(=O)OC [methyl propanoate] + CCCCCCCCCCCC[N+](C)(C)CCOc1ccccc1.O=S(=O)([N-]S(=O)(=O)C(F)(F)F)C(F)(F)F the listed activity coefficient is 0.633

* * *

assay-remarks: activity coefficient (dimensionless); of the first substance listed, at infinite dilution; xn = mol fraction of the nth substance listed
experimental-conditions: 328.15 K; 101.33 kPa; Liquid; Chromatography; x1 = 0
assay-endpoint: activity coefficient
Just the number, please.

For record CCC(=O)OC [methyl propanoate] + CCCCCCCCCCCC[N+](C)(C)CCOc1ccccc1.O=S(=O)([N-]S(=O)(=O)C(F)(F)F)C(F)(F)F the listed activity coefficient is 0.53

For record c1ccncc1 [pyridine] + CCCCCCCCCCCC[N+](C)(C)CCOc1ccccc1.O=S(=O)([N-]S(=O)(=O)C(F)(F)F)C(F)(F)F the listed activity coefficient is 0.296

For record C#CCCCC [1-hexyne] + CCCCCCCCCCCC[N+](C)(C)CCOc1ccccc1.N#C[N-]C#N the listed activity coefficient is 1.66

For record CC(C)OC(C)C [diisopropyl ether] + CCCCCCCCCCCC[N+](C)(C)CCOc1ccccc1.N#C[N-]C#N the listed activity coefficient is 4.03

For record CCCC(=O)OC [methyl butanoate] + CCCCCCCCCCCC[N+](C)(C)CCOc1ccccc1.O=S(=O)([N-]S(=O)(=O)C(F)(F)F)C(F)(F)F the listed activity coefficient is 0.601

For record CC#N [acetonitrile] + CCCCCCCCCCCC[N+](C)(C)CCOc1ccccc1.N#C[N-]C#N the listed activity coefficient is 0.756

For record CC(C)=O [acetone] + CCCCCCCCCCCC[N+](C)(C)CCOc1ccccc1.N#C[N-]C#N the listed activity coefficient is 0.721

For record c1ccsc1 [thiophene] + CCCCCCCCCCCC[N+](C)(C)CCOc1ccccc1.N#C[N-]C#N the listed activity coefficient is 0.648

For record CCO [ethanol] + CCCCCCCCCCCC[N+](C)(C)CCOc1ccccc1.O=S(=O)([N-]S(=O)(=O)C(F)(F)F)C(F)(F)F the listed activity coefficient is 1.2

For record CO [methanol] + CCCCCCCCCCCC[N+](C)(C)CCOc1ccccc1.N#C[N-]C#N the listed activity coefficient is 0.316

For record C#CCCCC [1-hexyne] + CCCCCCCCCCCC[N+](C)(C)CCOc1ccccc1.O=S(=O)([N-]S(=O)(=O)C(F)(F)F)C(F)(F)F the listed activity coefficient is 1.33

For record C1=CCCCC1 [cyclohexene] + CCCCCCCCCCCC[N+](C)(C)CCOc1ccccc1.O=S(=O)([N-]S(=O)(=O)C(F)(F)F)C(F)(F)F the listed activity coefficient is 1.52

For record C#CCCCCCC [1-octyne] + CCCCCCCCCCCC[N+](C)(C)CCOc1ccccc1.N#C[N-]C#N the listed activity coefficient is 2.22

For record CCCO [propan-1-ol] + CCCCCCCCCCCC[N+](C)(C)CCOc1ccccc1.O=S(=O)([N-]S(=O)(=O)C(F)(F)F)C(F)(F)F the listed activity coefficient is 1.24

For record CCCCCC [hexane] + CCCCCCCCCCCC[N+](C)(C)CCOc1ccccc1.O=S(=O)([N-]S(=O)(=O)C(F)(F)F)C(F)(F)F the listed activity coefficient is 2.99

For record CCCC=O [butanal] + CCCCCCCCCCCC[N+](C)(C)CCOc1ccccc1.O=S(=O)([N-]S(=O)(=O)C(F)(F)F)C(F)(F)F the listed activity coefficient is 0.742

For record CC(C)CO [2-methyl-1-propanol] + CCCCCCCCCCCC[N+](C)(C)CCOc1ccccc1.O=S(=O)([N-]S(=O)(=O)C(F)(F)F)C(F)(F)F the listed activity coefficient is 1.33

For record CCCCCCC [heptane] + CCCCCCCCCCCC[N+](C)(C)CCOc1ccccc1.O=S(=O)([N-]S(=O)(=O)C(F)(F)F)C(F)(F)F the listed activity coefficient is 3.52

For record Cc1ccc(C)cc1 [1,4-dimethylbenzene] + CCCCCCCCCCCC[N+](C)(C)CCOc1ccccc1.N#C[N-]C#N the listed activity coefficient is 1.38

For record CCCCCCCC [octane] + CCCCCCCCCCCC[N+](C)(C)CCOc1ccccc1.O=S(=O)([N-]S(=O)(=O)C(F)(F)F)C(F)(F)F the listed activity coefficient is 4.14

For record CCC(=O)CC [pentan-3-one] + CCCCCCCCCCCC[N+](C)(C)CCOc1ccccc1.N#C[N-]C#N the listed activity coefficient is 0.909

For record CC(C)CC(C)(C)C [2,2,4-trimethylpentane] + CCCCCCCCCCCC[N+](C)(C)CCOc1ccccc1.O=S(=O)([N-]S(=O)(=O)C(F)(F)F)C(F)(F)F the listed activity coefficient is 3.72

For record CCC[N+](=O)[O-] [1-nitropropane] + CCCCCCCCCCCC[N+](C)(C)CCOc1ccccc1.N#C[N-]C#N the listed activity coefficient is 0.83

For record CCCCCO [pentan-1-ol] + CCCCCCCCCCCC[N+](C)(C)CCOc1ccccc1.N#C[N-]C#N the listed activity coefficient is 0.477

For record CC(C)(C)O [2-methylpropan-2-ol] + CCCCCCCCCCCC[N+](C)(C)CCOc1ccccc1.O=S(=O)([N-]S(=O)(=O)C(F)(F)F)C(F)(F)F the listed activity coefficient is 1.1

For record C=COC(C)=O [vinyl acetate] + CCCCCCCCCCCC[N+](C)(C)CCOc1ccccc1.N#C[N-]C#N the listed activity coefficient is 1.24

For record CCC[N+](=O)[O-] [1-nitropropane] + CCCCCCCCCCCC[N+](C)(C)CCOc1ccccc1.O=S(=O)([N-]S(=O)(=O)C(F)(F)F)C(F)(F)F the listed activity coefficient is 0.747

For record CCOCC [diethyl ether] + CCCCCCCCCCCC[N+](C)(C)CCOc1ccccc1.N#C[N-]C#N the listed activity coefficient is 2.17

* * *

assay-remarks: activity coefficient (dimensionless); of the first substance listed, at infinite dilution; xn = mol fraction of the nth substance listed
experimental-conditions: 368.15 K; 101.33 kPa; Liquid; Chromatography; x1 = 0
For each record, write down the corresponding activity coefficient.
Just the number, please.

For record C=C(C)c1ccccc1 [(1-methylethenyl)benzene] + CCCCCCCCCCCC[N+](C)(C)CCOc1ccccc1.O=S(=O)([N-]S(=O)(=O)C(F)(F)F)C(F)(F)F the listed activity coefficient is 1.03

For record CCCOCCC [dipropyl ether] + CCCCCCCCCCCC[N+](C)(C)CCOc1ccccc1.O=S(=O)([N-]S(=O)(=O)C(F)(F)F)C(F)(F)F the listed activity coefficient is 2.13

For record C=CCCC [1-pentene] + CCCCCCCCCCCC[N+](C)(C)CCOc1ccccc1.N#C[N-]C#N the listed activity coefficient is 3.54
